measurement description: clinical
Set-up: species or system human (patients with solid tumours)
test parameters: human, in vivo, po, 2.3 mg, time needed to reach maximal plasma levels (tmax), median

>  <compound>
CC[C@@]1(O)C(=O)OCc2c1cc1n(c2=O)Cc2cc3c(CN(C)C)c(O)ccc3nc2-1 [topotecan, Topotecan]

>  <Tmax [h]>
3.1

$$$$

====

measurement description: clinical
Assay type: in vivo, human (patients with solid tumours)
test parameters: human, in vivo, bioavailability calculated using only the lactone data
measurement name: bioavailability (%)

>  <smiles text>
CC[C@@]1(O)C(=O)OCc2c1cc1n(c2=O)Cc2cc3c(CN(C)C)c(O)ccc3nc2-1

>  <reported value>
38

$$$$

====

measurement description: clinical
Set-up: species or system human (patients with solid tumours)
test parameters: human, in vivo, po, 2.3 mg, t1/2 (apparent terminal half-life)
measurement name: half-life (min)

>  <smiles text>
CC[C@@]1(O)C(=O)OCc2c1cc1n(c2=O)Cc2cc3c(CN(C)C)c(O)ccc3nc2-1

>  <reported value>
230

$$$$

====

measurement description: clinical
Assay type: in vivo, human (patients with solid tumours)
test parameters: human, in vivo, po, 2.3 mg, Cmax

>  <compound>
CC[C@@]1(O)C(=O)OCc2c1cc1n(c2=O)Cc2cc3c(CN(C)C)c(O)ccc3nc2-1 [topotecan, Topotecan]

>  <Cmax>
6.3 ng/mL

$$$$

====

measurement description: clinical
Type: in vivo, human (patients with solid tumours)
test parameters: human, in vivo, absolute bioavailability (F)

>  <smiles text>
CC[C@@]1(O)C(=O)OCc2c1cc1n(c2=O)Cc2cc3c(CN(C)C)c(O)ccc3nc2-1

>  <bioavailability>
42%

$$$$

====

measurement description: clinical
Parameters: species or system human (patients with solid tumours)
test parameters: human, in vivo; total; oral 2.3 mg m-2; fed; read-out: t1/2 (apparent terminal half-life) (converted)
measurement name: half-life (h)

>  <smiles text>
CC[C@@]1(O)C(=O)OCc2c1cc1n(c2=O)Cc2cc3c(CN(C)C)c(O)ccc3nc2-1

>  <measurement name>
half-life

>  <reported value>
3.49

$$$$
